B1: tRNA (parent)
chain: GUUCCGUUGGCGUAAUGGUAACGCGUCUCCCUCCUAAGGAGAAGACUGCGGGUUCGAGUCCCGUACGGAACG

# Variants of: B1
# Protocol Description: yeast fitness relative to wild type (ratio to wild type); higher = fitter; tRNA-Arg(CCU), competitive growth, 37 C, YPD
Fewer inactive variants are shown than the library holds.
Decide using yeast fitness: a value greater than or equal to 0.7 is yes, a smaller one is no.

Example results:
> print(dat)
            variant.annotation  label.value
1                    A43U G51A          yes
2  U2A U3G C29G C30G C46G A70G           no

## Task Determine whether this variant has yeast fitness no lower than 0.7: C30U C55U G67U
## Result no

## Task Hello, I need to know if A20U C30U C34G U53C A57U G67C has measured yeast fitness not below 0.7. Thanks!
## Result no

## Task Does the variant C33G A40G A42C C66U have recorded yeast fitness that is 0.7 or more?
## Result no

## Task Determine whether this variant has yeast fitness no lower than 0.7: U8C G9A A42G G58U
## Result no

## Task Hello, I need to know if C5G U13G C29U A40G G68A A70C has measured yeast fitness not below 0.7. Thanks!
## Result no

Data provenance: the RNAGym collection of RNA variant scans (doi:10.1126/science.aae0568)
